Tested on: MV4-11 cells
Protocol: Cell proliferation assay (ATPlite)
Assay type: cell-based
Condition notes: Homo sapiens, 120 h; MV4-11 cells, five days; read-out: GI MV411 EC50
Where a name gives a salt, the structure may show the parent alone.
Property: pEC50
pEC50 here is simply -log10 of the concentration when that concentration is written in mol/L.

Query :: Under MV4-11 cells, report pEC50 for C[C@@H]1CN(c2cc(F)c(C3=CCN(C(=O)OC4(C)CCC4)C3)c(F)c2NC(=O)c2c[nH]c(=O)cc2C(F)(F)F)C[C@H](C)N1C [Example 141]
Result :: 7.51

Query :: Under MV4-11 cells, report pEC50 for C[C@H]1CN(c2cc(F)c(C3=CCCN(c4ncc(F)cn4)C3)c(F)c2NC(=O)c2c[nH]c(=O)cc2C(F)F)CCN1C [Example 83]
Result :: 6.42

Query :: Under MV4-11 cells, report pEC50 for C[C@@H]1CN(c2ncc(-c3c(F)cc(N4CCN(C)[C@@H](C)C4)c(NC(=O)c4ccc(F)cc4C(F)F)c3F)cn2)C[C@H](C)O1 [Example 110, formic acid]
Result :: 7.48

Query :: Under MV4-11 cells, report pEC50 for C[C@@H]1CN(c2cc(F)c(C3=CCN(c4ncc(F)cn4)CC3)c(F)c2NC(=O)c2c[nH]c(=O)cc2C(F)(F)F)C[C@H](C)N1C [Example 145]
Result :: 7.23

Query :: Under MV4-11 cells, report pEC50 for C[C@H]1CN(c2ncc(-c3c(F)cc(N4CCN(C)[C@@H](C)C4)c(NC(=O)c4ccc(F)cc4C(F)F)c3F)cn2)C[C@H](C)O1 [Example 157]
Result :: 7.18

Others:
Query :: Under MV4-11 cells, report pEC50 for C[C@@H]1CN(c2ncc(-c3c(F)cc(N4CCN(C)[C@@H](C)C4)c(NC(=O)c4ccc(F)cc4C(F)(F)F)c3F)cn2)C[C@@H](C)O1 [Example 167, Formic Acid Salt]
Result :: 7.12

Query :: Under MV4-11 cells, report pEC50 for C[C@H]1CN(c2cc(F)c(C3=CCN(c4ncc(F)cn4)C3)c(F)c2NC(=O)c2c[nH]c(=O)cc2C(F)F)CCN1C [Example 91]
Result :: 7.42

Query :: Under MV4-11 cells, report pEC50 for CNC(=O)c1ccc(-c2c(F)cc(N3C[C@@H](C)N(C)[C@@H](C)C3)c(NC(=O)c3c[nH]c(=O)cc3C(F)(F)F)c2F)cc1F [Example 24]
Result :: 7.00

Query :: Under MV4-11 cells, report pEC50 for COc1cc(N2CC=C(c3c(F)cc(N4CCN(C)[C@@H](C)C4)c(NC(=O)c4c[nH]c(=O)cc4C(F)F)c3F)CC2)ncn1 [Example 67]
Result :: 7.00

Query :: Under MV4-11 cells, report pEC50 for C[C@H]1CN(c2ncc(-c3c(F)cc(N4CCN(C)[C@@H](C)C4)c(NC(=O)c4c[nH]c(=O)cc4C(F)(F)F)c3F)cn2)C[C@H](C)O1 [Example 87]
Result :: 7.71
